Each item that follows carries a reported lymphocytes.
procedure-text: Hematology assays in cynomolgus monkeys (Example 45)
Type: in vivo
reported-conditions: day 15
measurement-type: lymphocytes (%)

ISIS 416838: MOE gapmer, nucleobases 1018 to 1042 of SEQ ID NO: 1 (Table 6) (antisense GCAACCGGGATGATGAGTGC; MOE gapmer, wing and gap sizes not given here) | 53
ISIS 416858: MOE gapmer, nucleobases 1275 to 1318 of SEQ ID NO: 1 (Table 8) (antisense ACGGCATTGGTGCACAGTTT; MOE gapmer, wing and gap sizes not given here) | 43
ISIS 417002: MOE gapmer, nucleobases 1275 to 1318 of SEQ ID NO: 1 (Table 8) (antisense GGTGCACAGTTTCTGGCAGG; MOE gapmer, wing and gap sizes not given here) | 40
ISIS 416864: MOE gapmer, nucleobases 1275 to 1318 of SEQ ID NO: 1 (Table 8) (antisense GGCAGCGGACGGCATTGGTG; MOE gapmer, wing and gap sizes not given here) | 38
ISIS 416850: MOE gapmer, nucleobases 1275 to 1318 of SEQ ID NO: 1 (Table 8) (antisense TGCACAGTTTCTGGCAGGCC; MOE gapmer, wing and gap sizes not given here) | 38
